// reported Inhibition for each item listed
- System: HepG2
- Experiment: GSK_TCMDC: Percent inhibition of human HepG2 cell line. Test compounds present at 10uM.
- Type: functional
# output: bare number, implied unit %

Below, 3 compounds whose answers are already recorded.
CCN(CC)S(=O)(=O)c1cc(-c2ccc(=O)n(CC(=O)c3ccc(C)cc3)n2)ccc1C    6
Cc1sc(CNCCCNc2cc(=O)c3ccccc3[nH]2)c(C(F)(F)F)c1C.Cl    0
Br.CC(C)c1ccc(OCCCON2C(=N)N=C(N)NC2(C)C)cc1    69

For the compound Cl.Nc1nc(Nc2cccc(O)c2)nc2ccccc12 , the measured Inhibition on HepG2 was 25

For the compound C[C@H]1CN(Cc2cccc(-c3cc(CNC(=O)c4cccc(CN5CCN(C/C=C/c6ccccc6)CC5)c4)ccc3F)c2)CCN1.O=C(O)C(F)(F)F , the measured Inhibition on HepG2 was 98

For the compound CCCCCN1CCCC1CNS(=O)(=O)c1ccc(C(=O)Nc2cccc(C(F)(F)F)c2)cc1.O=C(O)C(F)(F)F (configuration not stated) , the measured Inhibition on HepG2 was 16

For the compound O=C(Nc1cccc(CN2CCCN(Cc3cccc(Cl)c3)CC2)c1)c1ccc(Cl)c(Cl)c1.O=C(O)C(F)(F)F , the measured Inhibition on HepG2 was 18

For the compound COc1ccc(OC)c(-c2ccc(O)c(CNCC(C)c3ccccc3)c2)c1 (configuration not stated) , the measured Inhibition on HepG2 was 26

For the compound COc1cc2s/c(=N\C(=O)c3cccc([N+](=O)[O-])c3)n(C)c2cc1OC , the measured Inhibition on HepG2 was 5

For the compound Cn1ccnc1CNC(=O)c1ccc(-c2cccc(-c3nc4cc(C(F)(F)F)ccc4[nH]3)c2)cc1 , the measured Inhibition on HepG2 was 20

For the compound Cc1cc(N[C@@H](CC(C)C)C(=O)NCCc2ccccc2)nc(NCCc2cccs2)n1.O=C(O)C(F)(F)F , the measured Inhibition on HepG2 was 0

For the compound CC(CN(C)C)C(=O)Nc1cccc(-c2ccc(-c3nc4cc(C(F)(F)F)ccc4[nH]3)cc2)c1 (configuration not stated) , the measured Inhibition on HepG2 was 26

For the compound CCCc1cn2c3c(cc(C(=O)N[C@@H](Cc4ccccc4)[C@H](O)CNC4CCOCC4)cc13)N(CC)S(=O)(=O)CC2.O=CO , the measured Inhibition on HepG2 was 2

For the compound CC(Cc1ccc(NC(=O)COc2ccc(CC(C)NCCc3cccc(Cl)c3)cc2)cc1)NCCc1cccc(Cl)c1 (configuration not stated) , the measured Inhibition on HepG2 was 100

For the compound COc1ccc2nccc([C@@H](O)CN3CCC(NC(=O)C(=Cc4ccc(C#N)cc4)c4ccc(-c5ccccc5)cc4)CC3)c2c1 , the measured Inhibition on HepG2 was 5

For the compound Cc1c(CCC#N)c(NCc2ccccc2)n2c(nc3ccccc32)c1C#N , the measured Inhibition on HepG2 was 16

For the compound CC(=O)N1N=C(c2ccc(Cl)cc2)Sc2c1nc(-c1ccccc1)n2C(C)=O , the measured Inhibition on HepG2 was 0

For the compound Cc1cc(C(=O)CN2C(=O)NC(C)(c3ccc4ccccc4c3)C2=O)c(C)n1Cc1ccco1 (configuration not stated) , the measured Inhibition on HepG2 was 12

For the compound CCc1c(CCNCC/C=C/CCNCCc2ccc(OC)c(OC)c2CC)ccc(OC)c1OC.Cl , the measured Inhibition on HepG2 was 41

For the compound O=c1ccc(CNc2nc(NCCc3ccccc3)nc3cc(Cl)ccc23)c[nH]1 , the measured Inhibition on HepG2 was 21

For the compound Cc1ccc2nc3ccccc3c(NCCN3CCN(C)CC3)c2c1.Cl , the measured Inhibition on HepG2 was 19

For the compound COc1cccc(OC(C)(C)c2nc(N[C@@H](C)c3ccccc3)c3cn[nH]c3n2)c1 , the measured Inhibition on HepG2 was 44

For the compound CO/C(=C\C=C\c1cc2cc(Cl)c(Cl)cc2[nH]1)C(=O)NC1CC2CCC(C1)N2C.Cl (configuration not stated) , the measured Inhibition on HepG2 was 46

For the compound Br.CCCCCCCn1c2c(c(=N)c3c1CCC3)CCCC2 , the measured Inhibition on HepG2 was 46

For the compound CN1CCC(NC(=O)c2cccc(Nc3cc(Nc4cccc(Br)c4)ncn3)c2)CC1 , the measured Inhibition on HepG2 was 25

For the compound O=C(Nc1ccc(C(F)(F)F)cc1)NC1CCN(c2ccnc3ccccc23)CC1.O=C(O)C(F)(F)F , the measured Inhibition on HepG2 was 46

For the compound Clc1ccc(-c2ccc(CNCCCN3CCCC3)cc2)cc1 , the measured Inhibition on HepG2 was 47
